Each item that follows carries a reported Kd.
- experimental-target: T1, EsCas13d, nuclease-dead (Eubacterium siraeum, UniProt B0MS50, R295A;H300A;R849A;H854A)
- T1 sequence: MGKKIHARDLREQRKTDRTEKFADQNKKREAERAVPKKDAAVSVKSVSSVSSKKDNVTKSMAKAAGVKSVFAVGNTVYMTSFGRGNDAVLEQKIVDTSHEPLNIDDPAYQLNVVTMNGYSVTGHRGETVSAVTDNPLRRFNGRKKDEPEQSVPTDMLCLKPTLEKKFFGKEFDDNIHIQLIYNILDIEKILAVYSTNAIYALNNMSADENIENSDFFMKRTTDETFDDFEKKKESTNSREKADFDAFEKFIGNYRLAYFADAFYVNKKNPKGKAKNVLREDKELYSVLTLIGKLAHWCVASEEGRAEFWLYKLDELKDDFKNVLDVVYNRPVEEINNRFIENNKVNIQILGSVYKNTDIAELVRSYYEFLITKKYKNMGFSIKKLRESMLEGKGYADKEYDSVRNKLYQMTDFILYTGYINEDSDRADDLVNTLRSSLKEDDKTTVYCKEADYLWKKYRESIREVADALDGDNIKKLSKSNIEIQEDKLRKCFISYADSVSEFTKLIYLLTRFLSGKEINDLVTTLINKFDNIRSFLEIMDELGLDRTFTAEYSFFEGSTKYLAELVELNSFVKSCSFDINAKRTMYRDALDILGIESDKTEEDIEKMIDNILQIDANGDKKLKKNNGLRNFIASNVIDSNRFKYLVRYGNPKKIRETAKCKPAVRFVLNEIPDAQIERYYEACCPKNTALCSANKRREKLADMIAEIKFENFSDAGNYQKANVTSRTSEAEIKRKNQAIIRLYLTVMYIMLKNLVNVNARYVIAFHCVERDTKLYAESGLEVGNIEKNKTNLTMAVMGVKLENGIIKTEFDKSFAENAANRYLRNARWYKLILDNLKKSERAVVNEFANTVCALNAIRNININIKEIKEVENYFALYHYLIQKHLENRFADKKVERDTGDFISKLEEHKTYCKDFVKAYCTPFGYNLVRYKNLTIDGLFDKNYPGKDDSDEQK
- protocol-notes: crRNA (strand 1, pre-loaded); Mg2+; 40 mM Tris-HCl pH 7.5, 150 mM NaCl, 6 mM MgCl2, 1 mM DTT, 0.1% Tween-20, 0.2 mg/ml BSA; 25 C; 10 min per concentration, then washed
- settings: tags: His6-TwinStrep-SUMO cleaved; N-terminal SNAP kept (SNAP-Surface 488); label: 3' end held by stalled T7 RNA polymerase

binder	Kd / nM
target 1 U3A,G17A (mixed) RNA 1: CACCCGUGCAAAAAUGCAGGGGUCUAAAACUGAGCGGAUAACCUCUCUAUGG RNA 2: GGGAAUGGAUCCACAUCUACGAAUUCGUACCAUAAAGAGGUUAUCCGCACACCGAGAUCGGAAGAGCACACGU	46
target 2 MT 5'PFS AAC 3'PFS ACU (mixed) RNA 1: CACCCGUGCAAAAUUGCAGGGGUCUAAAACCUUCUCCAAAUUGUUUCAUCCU RNA 2: GGGAAUGGAUCCACAUCUACGAAUUCAACAGGAUGAAACAAUUUGGAGAAGACUAGAUCGGAAGAGCACACGU	9.1
target 1 insC 3' of 22,insU 3' of 14 (mixed) RNA 1: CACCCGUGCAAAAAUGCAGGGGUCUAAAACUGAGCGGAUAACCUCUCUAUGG RNA 2: GGGAAUGGAUCCACAUCUACGAAUUCGUACCCAUAGAGAUGGUUAUCCGCUCACCGAGAUCGGAAGAGCACACGU	40
target 1 A9G,A16U (mixed) RNA 1: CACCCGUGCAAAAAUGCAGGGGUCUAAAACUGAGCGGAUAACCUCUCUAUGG RNA 2: GGGAAUGGAUCCACAUCUACGAAUUCGUACCAUAGUGAGGUUGUCCGCUCACCGAGAUCGGAAGAGCACACGU	82
target 1 MT 5'PFS CAG 3'PFS UAC (mixed) RNA 1: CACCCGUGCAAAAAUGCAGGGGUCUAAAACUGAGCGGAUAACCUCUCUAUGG RNA 2: GGGAAUGGAUCCACAUCUACGAAUUCCAGCCAUAGAGAGGUUAUCCGCUCAUACAGAUCGGAAGAGCACACGU	11.9
target 1 MT 5'PFS CAG 3'PFS UCG (mixed) RNA 1: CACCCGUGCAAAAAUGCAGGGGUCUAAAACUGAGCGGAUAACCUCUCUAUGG RNA 2: GGGAAUGGAUCCACAUCUACGAAUUCCAGCCAUAGAGAGGUUAUCCGCUCAUCGAGAUCGGAAGAGCACACGU	9
target 1 C4U,G5A (mixed) RNA 1: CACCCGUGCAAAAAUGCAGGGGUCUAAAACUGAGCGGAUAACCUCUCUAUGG RNA 2: GGGAAUGGAUCCACAUCUACGAAUUCGUACCAUAGAGAGGUUAUCCAUUCACCGAGAUCGGAAGAGCACACGU	14.2
target 2 MT 5'PFS GCC 3'PFS CCG (mixed) RNA 1: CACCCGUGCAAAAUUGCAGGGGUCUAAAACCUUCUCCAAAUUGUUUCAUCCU RNA 2: GGGAAUGGAUCCACAUCUACGAAUUCGCCAGGAUGAAACAAUUUGGAGAAGCCGAGAUCGGAAGAGCACACGU	18
target 2 MT 5'PFS UAA 3'PFS ACA (mixed) RNA 1: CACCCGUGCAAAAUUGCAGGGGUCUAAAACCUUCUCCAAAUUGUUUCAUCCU RNA 2: GGGAAUGGAUCCACAUCUACGAAUUCUAAAGGAUGAAACAAUUUGGAGAAGACAAGAUCGGAAGAGCACACGU	6
target 2 MT 5'PFS AGC 3'PFS AUG (mixed) RNA 1: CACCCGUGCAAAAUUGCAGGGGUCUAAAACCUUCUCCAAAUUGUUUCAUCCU RNA 2: GGGAAUGGAUCCACAUCUACGAAUUCAGCAGGAUGAAACAAUUUGGAGAAGAUGAGAUCGGAAGAGCACACGU	12.6
target 1 C4A,G5U (mixed) RNA 1: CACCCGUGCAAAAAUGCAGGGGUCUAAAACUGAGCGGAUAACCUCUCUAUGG RNA 2: GGGAAUGGAUCCACAUCUACGAAUUCGUACCAUAGAGAGGUUAUCCUAUCACCGAGAUCGGAAGAGCACACGU	30.6
target 1 insG 3' of 16,insC 3' of 12 (mixed) RNA 1: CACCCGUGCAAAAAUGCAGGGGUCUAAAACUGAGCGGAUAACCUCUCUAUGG RNA 2: GGGAAUGGAUCCACAUCUACGAAUUCGUACCAUAGAGGAGGCUUAUCCGCUCACCGAGAUCGGAAGAGCACACGU	47
target 1 MT 5'PFS CAG 3'PFS CGU (mixed) RNA 1: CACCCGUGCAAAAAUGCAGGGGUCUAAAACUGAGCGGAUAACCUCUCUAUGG RNA 2: GGGAAUGGAUCCACAUCUACGAAUUCCAGCCAUAGAGAGGUUAUCCGCUCACGUAGAUCGGAAGAGCACACGU	29.5
